Measured values drawn from PubChem BioAssay (Tox21) for this set.

Protocol: qHTS assay to identify small molecule agonists of H2AX (AID 1224845); further: potency means the concentration at half of the fitted maximal effect
Experimental parameters: CHO-K1 phospho-H2AX Ser139 HTRF, 3 h; series mostly up to 154 µM
Results filed as inconclusive are left out. The source made the active and inactive calls. The call rests on the fitted dose curve; in most records, active means well fitted activation curve with a large enough effect in the signal ratio in the repeat runs (not every such curve was filed as active); inconclusive means weak or mixed curves; inactive means flat fitted curve, though single readings scatter; the % refers to the signal ratio.
Observed property: Potency

c1ccc(C[P+](c2ccccc2)(c2ccccc2)c2ccccc2)cc1 : inactive
CCOC(=O)OC(=O)OCC : inactive
Cc1ccc2n[nH]nc2c1 : inactive
CCc1cccc(C)c1N(C(=O)C(=O)O)C(C)COC (stereo not given) : inactive
CCn1c2ccccc2c2ccccc21 : inactive

Requested read-out: Potency. Entry: Cc1ccc(S(=O)(=O)C(I)I)cc1
16 µM (active)

Requested read-out: Potency. Entry: CCCCC/C=C\C=C\C(=O)OCC
59 µM (active)

Requested read-out: Potency. Entry: NC(=O)c1ccccc1Cl
inactive
